So I've got a bunch of compounds here, and I need their IC50 values.
experiment: Growth inhibition of human G361 cells after 24 hrs by MTT assay; type: functional, cell-based; conditions: G-361, 24 h
Answers are plain numbers, in µM.

Fill in the blank: the reported IC50 of COc1ccc2nc(-c3cccc(Oc4ccccc4)c3)cc(-c3ccccc3)c2c1 is ____.
2.02

Another compound to look at: Cc1cc2nc(-c3cccc(Oc4ccccc4)c3)cc(-c3ccccc3)c2cc1C
5.84

Required: IC50, one value per compound below.
1. N#Cc1ccc2nc(-c3cccc(Oc4ccccc4)c3)cc(-c3ccccc3)c2c1
2. Fc1ccc2nc(-c3cccc(Oc4ccccc4)c3)cc(-c3ccccc3)c2c1

1. 2.15
2. 3.85

====

Please go through the items and note down their zone of inhibition at 250 µg/mL.
test system: Staphylococcus aureus; assay: Antibacterial activity against Staphylococcus aureus MTCC 96 at 250 ug/ml after 24 hrs by agar well diffusion method; format: functional; details: MTCC 96, 24 h, read-out: IZ
One number for each entry, in mm.

Find the measured zone of inhibition at 250 µg/mL: item Fc1ccc2nc(-c3cccc(Oc4ccccc4)c3)cc(-c3ccccc3)c2c1 , target or system Staphylococcus aureus.
29.9

And the next one, Oc1c(Cl)cc2nc(-c3cccc(Oc4ccccc4)c3)cc(-c3ccccc3)c2c1Cl ?
38.5

And what about the molecule Oc1ccc2nc(-c3cccc(Oc4ccccc4)c3)cc(-c3ccccc3)c2c1 ?
34.6

Consider the following items and state reported zone of inhibition at 250 µg/mL for each.
1. N#Cc1ccc2nc(-c3cccc(Oc4ccccc4)c3)cc(-c3ccccc3)c2c1
2. Cc1cc2nc(-c3cccc(Oc4ccccc4)c3)cc(-c3ccccc3)c2cc1C
3. Clc1ccc2nc(-c3cccc(Oc4ccccc4)c3)cc(-c3ccccc3)c2c1
4. COc1ccc2nc(-c3cccc(Oc4ccccc4)c3)cc(-c3ccccc3)c2c1
5. Brc1ccc2nc(-c3cccc(Oc4ccccc4)c3)cc(-c3ccccc3)c2c1

1. 26.5
2. 27.5
3. 21.6
4. 29.6
5. 22.5

====

Please provide measured IC50 for the entries that follow.
experiment: Growth inhibition of human G361 cells after 24 hrs by MTT assay; format: functional, cell-based; conditions: G-361, 24 h
Please report the result as a number followed by the unit.

Consider the molecule Clc1ccc2nc(-c3cccc(Oc4ccccc4)c3)cc(-c3ccccc3)c2c1 and give its measured IC50.
12 µM

Entry Oc1ccc2nc(-c3cccc(Oc4ccccc4)c3)cc(-c3ccccc3)c2c1 please
2.07 µM

Entry Brc1ccc2nc(-c3cccc(Oc4ccccc4)c3)cc(-c3ccccc3)c2c1 please
14.6 µM

Kindly consider the entry below.
// returns reported IC50 for input Oc1c(Cl)cc2nc(-c3cccc(Oc4ccccc4)c3)cc(-c3ccccc3)c2c1Cl
2 µM

The reported numbers originate from ChEMBL document CHEMBL3877314.
